# credit: PubChem BioAssay (NCI)

List of growth values.
Tested on: 786-0 renal
Assay: NCI-60 one-dose screen, 48 h (100 = growth as untreated, 0 = no growth, -100 = all killed)
Conditions: 10 µM unless noted
About 83,000 compounds went through this panel and 20% of them were active in at least one assay; those are over-represented in the sample as a whole.
Report the figure in % without appending any unit label.

`Cc1ccc2c(n1)C(=O)C(Cl)=C(Nc1cccc(C)c1C)C2=O` has a reported growth of 21.9

The reported value for `O=c1oc2ccc(-c3ccc(F)cc3F)cc2c(=O)n1-c1ccc(Br)cc1F` in terms of growth is 95.2

Notebook: `C#C[C@]1(O)CC[C@H]2[C@@H]3CC=C4c5sc(Nc6cccc(F)c6)nc5CC[C@]4(C)[C@H]3CC[C@@]21C` , growth read as 2.62

Per the records, this compound ( `C#C[C@]1(O)CC[C@H]2[C@@H]3CC=C4c5sc(Nc6cc(Cl)ccc6OC)nc5CC[C@]4(C)[C@H]3CC[C@@]21C` ) has growth equal to -32.3

growth in this record for COc1cccc2c1C=CC1(O2)Oc2cccc(OC)c2C=C1C (stereo not given) : 26.9

---

Tested on: BT-549 breast
Experiment: NCI-60 one-dose screen, 48 h (100 = growth as untreated, 0 = no growth, -100 = all killed)
Conditions: 10 µM unless noted
Compounds without any hit were thinned out: in the full panel of roughly 83,000, 20% have a hit.
reported property: growth (%)
Respond with the bare value in %.

Use the examples below as a reference point.
- COc1ccc2c(c1)c(-c1nn3cc(-c4ccncc4)nc3s1)cn2C: 71.5
- COc1cc(C(=O)c2cc(C(C)=O)c3cccc(C)n23)cc(OC)c1OC: 25.8
- NS(=O)(=O)c1ccc(Nc2nc(N/N=C/c3ccc4c(c3)OCO4)nc(Nc3ccccc3)n2)cc1: 76.7

Please fill in: growth reported for `CCCCc1nc2c(N)nc3ccccc3c2n1Cc1ccc(OC)cc1` = 72

For record `O=C(O)CC1CCN(c2ccc3nnc(Cl)n3n2)CC1` the listed growth is 101

Noted for `Clc1ccc2[nH]cc(-c3nn4cc(-c5cccnc5)nc4s3)c2c1` : its growth reads 110

---

System: SN12C renal
Assay: NCI-60 one-dose screen, 48 h (100 = growth as untreated, 0 = no growth, -100 = all killed)
Details: 10 µM unless noted
This is part of a sample that, as a whole, favours compounds with a hit. Of some 83,000 tested, about 20% had one in any assay.
true if growth is below 60%. false if not; exact matches included in false.

Reference set, count: 2
- Brc1cc(-c2cc(-c3ccc4c(c3)OCCO4)[nH]n2)cs1: false
- COC(=O)c1cccc(NC2=C(Cl)C(=O)C(C)=C(C)C2=O)c1: false

Would you kindly verify if growth of `C#C[C@]1(O)CC[C@H]2[C@@H]3CC=C4c5sc(Nc6cc(Cl)ccc6OC)nc5CC[C@]4(C)[C@H]3CC[C@@]21C` is strictly less than 60%?
true

growth strictly < 60% for this molecule? `Nn1c(=O)n(-c2cccc(C(F)(F)F)c2)c(=O)c2cc(-c3ccc(F)cc3F)ccc21`
true

Determine whether this molecule shows growth lower than 60% (ties excluded): `O=C(COc1ccc(/C=C2\C(=O)Nc3cc(Cl)ccc32)cc1)Nc1ccc(Cl)cc1`
false

Does the reported growth of the following molecule sit strictly below 60%? `CC1=C(C)C(=O)C(Nc2cccc(C(F)(F)F)c2)=C(Br)C1=O`
false

Dear reviewer, please state whether `CN1CCN(c2ccc(Nc3nc(NCCNC(=O)c4ccc(F)cc4)c4sccc4n3)cc2)CC1` has growth strictly beneath 60%.
false

Does this molecule meet the criterion growth < 60%? `CN1CCN(Cc2ccc(NC(=O)c3cncc(C#Cc4cnc5ccc(OCC(F)F)nn45)c3)cc2C(F)(F)F)CC1`
true

# check: growth < 60% for `Brc1cccc(-c2cc(-c3cnc4c(c3)OCCO4)n[nH]2)c1`
false

---

Test system: SF-268 CNS
Assay: NCI-60 one-dose screen, 48 h
Details: 10 µM unless noted
Protocol: Cells are grown in 96 well plates and exposed to the test compound for 48 hours. Compounds are tested at a single concentration, which is 10^-5 M for most compounds. The reported endpoint is percent growth (GI% or GIPRCNT), where numbers from 0 - 100% represent growth inhibition, and numbers from -100% - 0 represent cell death. For example, a value of 40 represents 60% growth inhibition. A value of 0 means no net growth occurred over the course of the experiment. […]
The panel holds about 83,000 compounds, 20% with a hit somewhere; the sample as a whole holds those more often. The source made the active and inactive calls. Rule for the calls: active = growth percent below 10; inactive = the rest.
Give one outcome, nothing more. List: active, inactive

Worked examples, 2 molecules total:
- CCN(CC)S(=O)(=O)c1ccc(-c2nc(C(Cl)Cl)nc3cc(-c4ccc(F)cc4)nn23)cc1: inactive
- COC(=O)c1cccc(NC2=CC(=O)C(C)=C(C)C2=O)c1: inactive

Hey, what did the test say about `CCCC[n+]1ccc(SCC(=O)n2ccc3ccccc32)c2ccccc21` ?
inactive

Which outcome was assigned to `CN1CCN(c2ccc(Nc3nc(NCCCNS(=O)(=O)c4cccc5ccccc45)c4sccc4n3)cc2)CC1` in this test?
active

Please share the test call associated with `C1=CC(c2nn3c(-c4ccccc4)nnc3s2)=Cc2ccccc2O1` .
inactive

---

The compounds listed here are annotated with their growth.
System: SNB-19 CNS
Experiment: NCI-60 one-dose screen, 48 h (100 = growth as untreated, 0 = no growth, -100 = all killed)
Conditions: 10 µM unless noted
The panel holds about 83,000 compounds, 20% with a hit somewhere; the sample as a whole holds those more often.
Only the number, expressed in %, is required.

Here is how some compounds turned out for growth.
- O=C1CSC(c2cn(-c3ccccc3)nc2-c2ccc(Cl)cc2)N1c1ccccc1 (configuration not stated): 112
- CCCCc1nc2c(N)nc3ccccc3c2n1Cc1cccc(CN)c1: 63.2
- O=C(Nc1ccccc1)Nc1nc2ccc([N+](=O)[O-])cc2[nH]1: 66.3
- NC1=NC2(CCCC2)N(c2ccc(S(=O)(=O)Nc3nccs3)cc2)C(N)=N1: 100
- C1=CC(c2nn3c(-c4ccccc4)nnc3s2)=Cc2ccccc2O1: 74.9
- CN1CCC[C@]2(C)[C@H]3CC[C@@H]4[C@@H]5[C@H]6OC[C@@]5(CCC6(C)C)CC[C@@]4(C)[C@]3(C)CC[C@H]2C1(C)C: 84.8
- CC(C)C(/C=C/c1[nH]ncc1-c1cc(Cl)ccc1O)N1CCOCC1 (configuration not stated): 99.5
- Cc1c(C(=O)/C=C/c2ccc(Cl)cc2)nnn1-c1ccc2oc(=O)ccc2c1: 96.3
- Fc1cc(F)cc(NNC(=S)c2ccccc2)c1: 61.7
- CSc1ccc(/C(=N/N=C(N)N)c2ccc(F)cc2)cc1: 25.7

For this compound ( `O=C(CSc1nc2ccccc2c(=O)n1-c1ccccc1)N/N=C/c1ccc(Oc2ccc(Cl)cc2)cc1` ), measured growth is 33.2

For this compound ( CCCCCCCCCCCC(=O)NC(C)(C)C(=O)N1CCCC1C(=O)NC(C)(C)C(=O)NC(C)(C)C(=O)N1CCCC1C(=O)NC(C)(C)C(=O)NC(C)(C)C(=O)N1CCCC1C(=O)NC(C)C(=O)NCCC(=O)NC(C)C(=O)NC(C)(C)C(=O)NC(C)(C)C(=O)NC(C)(C)C(=O)NCCC(=O)NC(C)(C)C(=O)NC(C)(C)C(=O)NC(C)(C)C(=O)NC(C)C(=O)NCCC(=O)O (configuration not stated) ), measured growth is -97.4

Reported growth ( `N#C/C(=C\c1ccc(-c2ccc(Cl)c(Cl)c2)o1)C(=O)Nc1ncc(Cc2ccc(Cl)cc2)s1` ) = 37.8

Measured growth, `CCc1nnc(NC(=O)c2cc(-c3ccc(Cl)cc3Cl)oc2C)s1` : 79.7

Sample `CCOC(=O)c1c(NC(=O)c2ccc(C(F)(F)F)cc2)sc2c(CN3CCN(C)CC3)c(O)ccc12` ; growth observed: -27.3

growth for `Brc1ccc(-c2cc(-c3ccc4c(c3)OC=CO4)n[nH]2)s1` is 91.7

---

System: NCI-H226 lung
Test: NCI-60 one-dose screen, 48 h (100 = growth as untreated, 0 = no growth, -100 = all killed)
Conditions: 10 µM unless noted
This is part of a sample that, as a whole, favours compounds with a hit. Of some 83,000 tested, about 20% had one in any assay.
Measured growth, listed per entry.
The figure you give is taken to be in %; do not add the unit.

Look over these answered cases.
* COC(=O)c1cccc(NC2=C(Cl)C(=O)c3nc(C)ccc3C2=O)c1 | 87
* CC(=O)N1N=C(c2cc3ccccc3oc2=O)CC1c1cn(-c2ccccc2)nc1-c1ccc(C)cc1 (stereo not given) | 94.8
* Oc1[nH]c2ccc(Cl)cc2c1N=Nc1nc(N=Nc2c(O)[nH]c3ccc(Cl)cc23)nc(N2CCCCC2)n1 | 63.4
* Cc1ccc(N2CCN(C3=C(Cl)C(=O)c4ncccc4C3=O)CC2)cc1 | 93.2

Looking up `CC(C)NC(=O)c1cc(-c2ccc(NC(=O)Nc3ccc(F)cc3)cc2)nc2cccnc12` , I see its growth listed as 99.1

The compound `O=C(CCCCCCNC(=O)C(O)(O)C(F)(F)F)Nc1ncc(-c2ccc(Br)cc2)s1` showed growth equal to 4.5

// growth lookup, compound = `O=c1nc(Nc2ccc([N+](=O)[O-])cc2O)sc2ccccc12` , result: 57.2

Record `CCOC(=O)c1ccccc1NC1=C(Cl)C(=O)c2nc(C)ccc2C1=O` . Reported growth: 100

growth reported for this compound `O=C(CCCCCCN1CC(=O)N2[C@@H](C3CC3)c3[nH]c4ccccc4c3C[C@H]2C1=O)NO` : 95

The compound listed as `Cc1ccc(-c2csc(N/N=C/c3cccs3)n2)cc1` has a reported growth of 70.1
